# normalized growth per record follows
# ASSAY PROCEDURE: chemical genetic growth profiling, strain panel (AID 1159580);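 note: tested at 20 µM; growth read once vehicle control cultures reached saturation at 30 °C; 1 = growth at the plate median or of vehicle wells; lower values mean less growth of the strain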
# CONDITIONS USED: S. cerevisiae deletion strains, growth OD, locus YJL187C, strain SWE1 (second series), active compounds read low
Among all 5,500 compounds or so, about 2,000 (36%) were called active. Not shown: some 18% with an inconclusive outcome. The list shows a part of the results.
Just the number, please, no unit after it.

Solved cases (5 shown):
{"COMPOUND": "CC(=O)Oc1ccc2c(c1OC(C)=O)OCC1(O)Cc3c(cc(OC(C)=O)c(OC(C)=O)c3OC(C)=O)C21 (centres undefined)", "normalized growth": 0.873}
{"COMPOUND": "NC(=NCCC[C@H](N)C(=O)O)N[N+](=O)[O-]", "normalized growth": 0.983}
{"COMPOUND": "C[N+](C)(C)CC(O)CC(=O)O (centres undefined)", "normalized growth": 1.01}
{"COMPOUND": "CCCCC1C(=O)N(c2ccccc2)N(c2ccc(O)cc2)C1=O (centres undefined)", "normalized growth": 0.98}
{"COMPOUND": "Oc1ccc2c(c1)OCC1(O)Cc3cc(O)c(O)cc3C21 (centres undefined)", "normalized growth": 0.922}

Incoming: Can you share its normalized growth? I mean this compound: O=C(O[C@@H]1Cc2c(O)cc(O)cc2O[C@@H]1c1cc(O)c(=O)c2c(O)c(O)cc([C@H]3Oc4cc(O)cc(O)c4C[C@H]3OC(=O)c3cc(O)c(O)c(O)c3)c2c1)c1cc(O)c(O)c(O)c1
Outgoing: 0.512

Incoming: Can you share its normalized growth? I mean this compound: COc1ccc(Cl)cc1C(=O)NCCc1ccc(S(=O)(=O)NC(=O)NC2CCCCC2)cc1
Outgoing: 0.943

Incoming: Can you share its normalized growth? I mean this compound: O=C(OC1Cc2c(O)cc(O)cc2OC1c1cc(=O)c(O)c2c(O)c(O)cc(C3Oc4cc(O)cc(O)c4CC3O)c2c1)c1cc(O)c(O)c(O)c1 (centres undefined)
Outgoing: 0.0967

Incoming: Can you share its normalized growth? I mean this compound: CN1C[C@H](C(=O)N[C@]2(C)O[C@@]3(O)[C@@H]4CCCN4C(=O)[C@H](Cc4ccccc4)N3C2=O)C[C@@H]2c3cccc4[nH]cc(c34)C[C@H]21
Outgoing: 0.941

Incoming: Can you share its normalized growth? I mean this compound: CCC(N)C(O)c1ccc(O)c(O)c1 (centres undefined)
Outgoing: 0.996

Incoming: Can you share its normalized growth? I mean this compound: O=C(O)C1=C[C@@H](O)[C@@H](O)[C@H](O)C1
Outgoing: 1.04

Incoming: Can you share its normalized growth? I mean this compound: CCC1OC(=O)[C@H](C)C(=O)[C@H](C)[C@@H](OC2O[C@H](C)C[C@H](N(C)C)[C@H]2O)[C@](C)(OC)C2(CCCn3cnc(-c4cccnc4)c3)C[C@@H](C)C(=O)[C@H](C)[C@H]3N(C2)C(=O)O[C@]13C (some centres undefined)
Outgoing: 0.999

Incoming: Can you share its normalized growth? I mean this compound: OCC(O)C(O)C(O)C(O)C(O)CO (centres undefined)
Outgoing: 1.01
